B1: Homeobox protein cut-like 1, residues 941 to 1008; numbered along this chain, P39880 (parent)
chain: QEVDTIELTRQVKEKLAKNGICQRIFGEKVLGLSQGSVSDMLSRPKPWSKLTQKGREPFIRMQLWLNG

Variants of: B1
assayProcedure: abundance fitness (aPCA) (normalised: wild type 0, dead -1); higher = more abundant; growth selection in yeast, the domain comes from the species named
testSettings: Homo sapiens
measurementName: abundance fitness

stdin: Specify reported abundance fitness for the variant shown: `QEVDTIELTRQVKEKLAKNGICQRIFGEKVLGLSQGSVSAMLSRPKPWSKLTQKGREPFIRMQLWLNG`
stdout: -0.158

stdin: Specify reported abundance fitness for the variant shown: `QEVDTIELTRQVKEKLAKEGICQRIFGEKVLGLSQGSVSDMLSRPKPWSKLTQKGREPFIRMQLWLNG`
stdout: 0.098

stdin: Specify reported abundance fitness for the variant shown: `QEVDTIELTRQVKEKLAKNGICQRIFGEKVLGLSQGSCSDMLSRPKPWSKLTQKGREPFIRMQLWLNG`
stdout: -0.096

stdin: Specify reported abundance fitness for the variant shown: `QEVDTIELTRQVKEKLAKNGICERIFGEKVLGLSQGSVSDMLSRPKPWSKLTQKGREPFIRMQLWLNG`
stdout: -0.068

stdin: Specify reported abundance fitness for the variant shown: `QEVDTIELTRQVEEKLAKNGICQRIFGEKVLGLSQGSVSDMLSRPKPWSKLTQKGREPFIRMQLWLNG`
stdout: -0.208

stdin: Specify reported abundance fitness for the variant shown: `QEVDTIELTRQVKEKLAKNGICQRIFGEKVLGLSQGSVSDVLSRPKPWSKLTQKGREPFIRMQLWLNG`
stdout: -0.007

stdin: Specify reported abundance fitness for the variant shown: `QEVDTIELTRQVKEKLAKGGICQRIFGEKVLGLSQGSVSDMLSRPKPWSKLTQKGREPFIRMQLWLNG`
stdout: -0.087

stdin: Specify reported abundance fitness for the variant shown: `QEVDTIELTRQVKEKLAKNGICQRIFGEKALGLSQGSVSDMLSRPKPWSKLTQKGREPFIRMQLWLNG`
stdout: -0.253

stdin: Specify reported abundance fitness for the variant shown: `QEVDTIELTRQVKEKLAKNGICQRIFGEKVLGLSQGSTSDMLSRPKPWSKLTQKGREPFIRMQLWLNG`
stdout: 0.164

stdin: Specify reported abundance fitness for the variant shown: `QEVDTIELTRQVKEKLDKNGICQRIFGEKVLGLSQGSVSDMLSRPKPWSKLTQKGREPFIRMQLWLNG`
stdout: 0.014

stdin: Specify reported abundance fitness for the variant shown: `QEVDTIELTRQVKEKLAKNGICQRIFGEKVIGLSQGSVSDMLSRPKPWSKLTQKGREPFIRMQLWLNG`
stdout: -0.278

stdin: Specify reported abundance fitness for the variant shown: `QEVDTIELTRQVKEKLAKNGICQRIFGEKVLGLSQGSVSDMLSRPKPWSTLTQKGREPFIRMQLWLNG`
stdout: -0.059

stdin: Specify reported abundance fitness for the variant shown: `QEVDTIELTRQVKEKLASNGICQRIFGEKVLGLSQGSVSDMLSRPKPWSKLTQKGREPFIRMQLWLNG`
stdout: -0.102

stdin: Specify reported abundance fitness for the variant shown: `QEVDTIELTRQVKEKLAKNGICQRIFGGKVLGLSQGSVSDMLSRPKPWSKLTQKGREPFIRMQLWLNG`
stdout: -0.072

stdin: Specify reported abundance fitness for the variant shown: `QEVDTDELTRQVKEKLAKNGICQRIFGEKVLGLSQGSVSDMLSRPKPWSKLTQKGREPFIRMQLWLNG`
stdout: -0.268

stdin: Specify reported abundance fitness for the variant shown: `QEVDTIELTRQVKEKLAKNGICQRIFGEKVLGLSQGSVSDMLSRPKPWSKLIQKGREPFIRMQLWLNG`
stdout: -0.009

stdin: Specify reported abundance fitness for the variant shown: `QEVDTIELTRQVKEKLAKNGICQRIFGTKVLGLSQGSVSDMLSRPKPWSKLTQKGREPFIRMQLWLNG`
stdout: -0.041

stdin: Specify reported abundance fitness for the variant shown: `MEVDTIELTRQVKEKLAKNGICQRIFGEKVLGLSQGSVSDMLSRPKPWSKLTQKGREPFIRMQLWLNG`
stdout: 0.09

stdin: Specify reported abundance fitness for the variant shown: `QEVDTIELTRQVKEKLAKNGICQRIFGQKVLGLSQGSVSDMLSRPKPWSKLTQKGREPFIRMQLWLNG`
stdout: -0.127

stdin: Specify reported abundance fitness for the variant shown: `QEVDTIELTRQVKEKLAKNGICQRIFGYKVLGLSQGSVSDMLSRPKPWSKLTQKGREPFIRMQLWLNG`
stdout: -0.229

stdin: Specify reported abundance fitness for the variant shown: `QEVDTIELTRQVKEKLAQNGICQRIFGEKVLGLSQGSVSDMLSRPKPWSKLTQKGREPFIRMQLWLNG`
stdout: -0.134

stdin: Specify reported abundance fitness for the variant shown: `QEVDTIELTRQVKEKLAKNGICQRIFGEKVLRLSQGSVSDMLSRPKPWSKLTQKGREPFIRMQLWLNG`
stdout: -0.029

stdin: Specify reported abundance fitness for the variant shown: `QEVDTIELTRQYKEKLAKNGICQRIFGEKVLGLSQGSVSDMLSRPKPWSKLTQKGREPFIRMQLWLNG`
stdout: -0.175

stdin: Specify reported abundance fitness for the variant shown: `QEVDTIELTRQVKEKLAKNGICQRIFGEKVLGLSQGSVSDMLVRPKPWSKLTQKGREPFIRMQLWLNG`
stdout: -0.064

stdin: Specify reported abundance fitness for the variant shown: `QEVDTIELTRTVKEKLAKNGICQRIFGEKVLGLSQGSVSDMLSRPKPWSKLTQKGREPFIRMQLWLNG`
stdout: -0.142

stdin: Specify reported abundance fitness for the variant shown: `QEVDTIELTRQVKEKLAKNGICQRIFGEKVLGLSQGSGSDMLSRPKPWSKLTQKGREPFIRMQLWLNG`
stdout: -0.263

stdin: Specify reported abundance fitness for the variant shown: `QEVDTIELTRQVKEKLAKNGICQRIFGEKVLGLSQASVSDMLSRPKPWSKLTQKGREPFIRMQLWLNG`
stdout: 0.067

stdin: Specify reported abundance fitness for the variant shown: `QEVDTIELTRQVKEKLAKNGICQRIFGEKVLGLSQGSVSDMLSRPKPASKLTQKGREPFIRMQLWLNG`
stdout: -0.904

stdin: Specify reported abundance fitness for the variant shown: `QEVDTIELTRQVKEKLAKNGICQRWFGEKVLGLSQGSVSDMLSRPKPWSKLTQKGREPFIRMQLWLNG`
stdout: 0.021

stdin: Specify reported abundance fitness for the variant shown: `QEVDTIELDRQVKEKLAKNGICQRIFGEKVLGLSQGSVSDMLSRPKPWSKLTQKGREPFIRMQLWLNG`
stdout: -0.168

stdin: Specify reported abundance fitness for the variant shown: `QEVDTIELTRQVKEKLAKNGICQRIFGEKVLGLSQGSASDMLSRPKPWSKLTQKGREPFIRMQLWLNG`
stdout: -0.215

stdin: Specify reported abundance fitness for the variant shown: `QEVDTIELTRQVKEKLAKNGICNRIFGEKVLGLSQGSVSDMLSRPKPWSKLTQKGREPFIRMQLWLNG`
stdout: -0.133

stdin: Specify reported abundance fitness for the variant shown: `QEVDTIELTRQVKEKVAKNGICQRIFGEKVLGLSQGSVSDMLSRPKPWSKLTQKGREPFIRMQLWLNG`
stdout: -0.162

stdin: Specify reported abundance fitness for the variant shown: `QEVWTIELTRQVKEKLAKNGICQRIFGEKVLGLSQGSVSDMLSRPKPWSKLTQKGREPFIRMQLWLNG`
stdout: -0.552

The reported measurements were obtained from the Human Domainome abundance scans (Beltran et al. 2025).
